Where do the numbers come from? From PubChem BioAssay AID588832.

test system: hedgehog, isoform A (Drosophila melanogaster); assay: Hh protein inhibition, biochemical readout – plate reader, single concentration, primary screen (AID 588832); conditions: Biochemical plate reader assay, at 30.3 µM, hits give high values;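 note: 0% = neutral control wells and 100% = positive control wells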
The whole screen tested about 8,000 compounds, of which fewer than 10 were called active. The list is a sample of the results.
RESULT_TYPE: inhibition (%)
The reply should contain only the number, in %.

Some compounds with known inhibition results, for comparison:
COMPOUND	RESULT_TYPE	MEASURED_VALUE
O=C(Cn1ncc2c1-c1ccccc1OC2)Nc1ccc(S(=O)(=O)N2CCCCC2)cc1	inhibition	6.96
COc1c(O)c(O)c2oc(-c3ccccc3)cc(=O)c2c1OC	inhibition	6.79
COc1ccc(S(=O)(=O)NCc2ccc3c(c2)cc(C)n3C)cc1	inhibition	62.3
Cc1cccc(C(=O)N2CCN(Cc3ccc4c(c3)OCO4)CC2)c1	inhibition	5.77

We next turn to a different compound, shown below.
Under hedgehog, isoform A (Drosophila melanogaster): inhibition value of COC(=O)c1ccccc1NC(=O)C1CCCN(c2nnc(-n3cccc3)s2)C1 (stereo not given) ?
0.909
